- Tested on: PXR homodimer (NR concentration 270 nM)
- procedureText: PBM binding z-score (relative to random genomic background probes); higher = stronger binding; sequences stand for … in GC…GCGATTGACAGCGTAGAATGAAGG
propertyMeasured: PBM binding z-score
// keep it numeric: no unit symbol after the value

Some sequences with known PBM binding z-score results, for comparison:
TCATATAGGAAAATGCTAGGTGAAAGTCCGATCT : 0.397
CCTACAGGGTCAGCTAGGCCAGAGTAGGGACGGC : -0.627
CGAACTCGGTCAGAACAGGACAGTGAAGGATGAT : -0.225
CCTCGCAGGACAGAAGGTCAGAGCTGTCCGCTTT : -0.203

Challenge: Reported PBM binding z-score, sequence CAAACTAGGTCAAGAGGTAAAAGTCCGCTTCCCG : ____
Response given: 0.28

* * *

- System: PPARg:RXRa (NR concentration 180 nM, RXRa partner concentration 90 nM)
- procedureText: PBM binding z-score (relative to random genomic background probes); higher = stronger binding; sequences stand for … in GC…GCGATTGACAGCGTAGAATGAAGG
Classify by measured PBM binding z-score: y if it is equal to or exceeds 0.3, n if it is smaller.

Completed entries (count: 5):
TGAATGAGGTTATAAGATCATGGAACGTTGCAAA : y
GCGACTGGCGCAAAGCAGGTTACCATAAGGTTGG : n
AGAGCGAGGGCACGCTGAGTTGATAGCAGAGTAG : y
CGAACTAGGTTAGAACAGGACAGTGAAGGATGAT : y
CGTCCAAGGTCGGCAGGTCAGTGAAAGCGACGTG : n

Challenge: PBM binding z-score >= 0.3 for CAAACTAGGTCACGGAAGGTCAAAGTCGAATGAC ?
Response given: y

Challenge: PBM binding z-score >= 0.3 for TCTCGGAGGACACGAACGTCAGAGCTTTCCAGAG ?
Response given: n

* * *

- System: PXR homodimer (NR concentration 270 nM)
- procedureText: PBM binding z-score (relative to random genomic background probes); higher = stronger binding; sequences stand for … in GC…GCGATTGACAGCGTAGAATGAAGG
Here, each record is paired with measured PBM binding z-score data.
// keep it numeric: no unit symbol after the value

Challenge: Reported PBM binding z-score, sequence TCTTTTAGATCAACAGGAGGTTAAGAAAGATCGA : ____
Response given: 0.393

* * *

- Test system: PPARg:RXRa DBDmut IVT, anti-RXR (DBD mutation: RXRa K156A/R161A, NR concentration 270 nM, RXRa partner concentration 90 nM)
- procedureText: PBM binding z-score (relative to random genomic background probes); higher = stronger binding; sequences stand for … in GC…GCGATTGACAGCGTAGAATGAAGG
Here, each record is paired with measured PBM binding z-score data.
// keep it numeric: no unit symbol after the value

Some sequences with known PBM binding z-score results, for comparison:
TAGCCGAGGTCATGCGGGCCAGTATAGTGTCGGC : 1.88
CGAACTAGGTCAGAACAGGAGAGTGAAGGATGAT : 7.25
CGTCAAAGTTCAAGGTAACGTAGCAGAAAGCAGC : 0.831

# input for lookup
Challenge: Reported PBM binding z-score, sequence TAGCCTAGGTCAGATCGGGCCAGTTTACGCTATA : ____
Response given: 0.41

* * *

- System: RARa homodimer (NR concentration 270 nM)
- procedureText: PBM binding z-score (relative to random genomic background probes); higher = stronger binding; sequences stand for … in GC…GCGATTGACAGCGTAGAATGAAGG
Here, each record is paired with measured PBM binding z-score data.
// keep it numeric: no unit symbol after the value

Some sequences with known PBM binding z-score results, for comparison:
AAAATGAGGTTACCAAAGATCAGGGAAACGCTTG : -0.123
GCTTGTAGATCAAGGTTAAGATAGACTAAGCTAA : -0.522
ACTATTAATTGAGACGAGGGCAACCGATAGGTTG : 1.68

Challenge: Reported PBM binding z-score, sequence ACTAGCAGGCGAAGGGTCACTCAAGATTAGTCCG : ____
Response given: -0.0684

Challenge: Reported PBM binding z-score, sequence GCTTACGGGTCAAAGTTTATAGCATGAATAGAAT : ____
Response given: 0.895

Challenge: Reported PBM binding z-score, sequence CGTCCAAGGTCAGCAAGTCAGTGAAAGCGACGTG : ____
Response given: 0.523

* * *

- Tested on: PPARg:RXRa 270nM:90nM, anti-RXR (NR concentration 270 nM, RXRa partner concentration 90 nM)
- procedureText: PBM binding z-score (relative to random genomic background probes); higher = stronger binding; sequences stand for … in GC…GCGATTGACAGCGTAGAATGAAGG
propertyMeasured: PBM binding z-score
// keep it numeric: no unit symbol after the value

Some sequences with known PBM binding z-score results, for comparison:
TTACCAAGGTGAAAGGTCGTTCATGCACGCCTTG : 8.22
CGTCAAAGTTCAACTAAGGTAATGTAAAGCACGC : 5.65
GTACCAAGGTGACTAGGTCGTTGATGAGTAGGCG : 1.69
ACAGACAGGTGAGTGAAGGTGACTCAGCTGGACG : 0.28

Challenge: Reported PBM binding z-score, sequence CCTTACGGGTCATGAGGTTATAGCACGACGAGCG : ____
Response given: 5.69

Challenge: Reported PBM binding z-score, sequence ACTAGCAGGCCAAGATTGGGTCACTCAAACAAAG : ____
Response given: 0.402

Challenge: Reported PBM binding z-score, sequence ACAGACAGGTGAATGAAGGTAACTCAGCTGGACG : ____
Response given: 0.258

Challenge: Reported PBM binding z-score, sequence TCTATTAGTTGAAGGGAAACCGACGAGTCCGTTT : ____
Response given: 2.13

* * *

- Tested on: VDR homodimer (NR concentration 270 nM)
- procedureText: PBM binding z-score (relative to random genomic background probes); higher = stronger binding; sequences stand for … in GC…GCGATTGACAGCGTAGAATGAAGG
Here, each record is paired with measured PBM binding z-score data.
// keep it numeric: no unit symbol after the value

Some sequences with known PBM binding z-score results, for comparison:
CAAACTTGGTCAAGGTCAAAGTCGGTTTGTGCCA : 3.32
CAAACTAGGTGACCGGAAGGTCAAAGTCCGCATG : 2.49
CGAACTAGGTTAAGGACAGTGAATCTCCGCACGC : -0.012
AGAATGAGCTTATACGTAGATCAGGGAAGAAAGT : -0.447
TCTTGTAGATGAACAGGAGGTTAAGAAAGATCGA : -0.297
TCTATTAGTTGAAGGGCCACCGACGAGTCCGTTT : 1.35

Challenge: Reported PBM binding z-score, sequence TCACATAGGTAAATGCTAGGTGAAAGTCCGATCT : ____
Response given: -0.199

Challenge: Reported PBM binding z-score, sequence ATCTCTAAGTAAAGATAGTTCAGTGAATGCAAAT : ____
Response given: 0.578

Challenge: Reported PBM binding z-score, sequence CCAGACAGGTGAAAGGTAGCTCAGTCTGGTACGC : ____
Response given: 0.118

Challenge: Reported PBM binding z-score, sequence GCGACTGGGGCAAATCAGGTTACCATAAGGTTGG : ____
Response given: -0.198

Challenge: Reported PBM binding z-score, sequence AATACAGGGCCACTAGGCCAGAGTAGGTACGAAT : ____
Response given: 0.318

Challenge: Reported PBM binding z-score, sequence AGAATGAAGTTATTAAGATCAGGGAATTGCGGTC : ____
Response given: -0.263

Challenge: Reported PBM binding z-score, sequence ATATGTAGGTTAGCTGTGGTCATTCAGACTAGGC : ____
Response given: 0.494

Challenge: Reported PBM binding z-score, sequence TCTATTCGTTGATTAGGGCAACCGAAACAGCGGA : ____
Response given: -0.134

* * *

- Test system: LXRb homodimer (NR concentration 270 nM)
- procedureText: PBM binding z-score (relative to random genomic background probes); higher = stronger binding; sequences stand for … in GC…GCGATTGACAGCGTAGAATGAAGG
Classify by measured PBM binding z-score: MET if it is equal to or exceeds -0.5, NOT MET if it is smaller.

Completed entries (count: 5):
CCTCGGAGGACAGATGGTCAGAGCTGTCCGCTTT : NOT MET
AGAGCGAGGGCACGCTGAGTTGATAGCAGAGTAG : NOT MET
ATGTCTAGGTAAGACTCAGTTCAGTGAAGAACGC : MET
CCTATTGGGCCATCAGGTCATTGATATCAACGTT : MET
ATCTCTAGGTAAAAGTACAGTGAATCCCGAGGAT : MET

Challenge: PBM binding z-score >= -0.5 for GCTTGTAGATCAAGGATAAGAAAGACTAAGCTAA ?
Response given: NOT MET

Challenge: PBM binding z-score >= -0.5 for TCTTGTAGATCAGCACGTTAAGAAAGCTGGCCAA ?
Response given: MET
